# systemName: Histone deacetylase
# assayDetails: Inhibition of HDAC activity in HeLa cell nuclear extract by fluorescent assay
# Assay type: protein assay, Homo sapiens
resultType: IC50
The answer should read as a number with its unit following.

Look at this molecule and give its reported IC50. O=C(NO)c1cnc(N2CCN(S(=O)(=O)c3ccccc3)CC2)s1
0.57 µM

What would you report for O=C(/C=C/c1cnc(N2CCN(S(=O)(=O)c3ccc([N+](=O)[O-])cc3)CC2)s1)NO ?
1.6 µM

What would you report for O=C(NO)c1cnc(N2CCN(S(=O)(=O)c3ccc(C(F)(F)F)cc3)CC2)s1 ?
2.6 µM

* * *

# systemName: Histone deacetylase
# assayDetails: Inhibition of HDAC activity in HeLa cell nuclear extract by fluorescent assay
# Format: protein assay, Homo sapiens
Would you mind classing the entries by IC50? Ranges: class 1 (below 200 nM), class 2 (200 nM to below 3000 nM), class 3 (3000 nM or more)

structure: Cc1ccc(S(=O)(=O)N2CCN(c3ncc(/C=C/C(=O)NO)s3)CC2)cc1
assignedLabel: class 2

structure: COc1ccc(S(=O)(=O)N2CCN(c3ncc(C(=O)NO)s3)CC2)cc1OC
assignedLabel: class 1

structure: O=C(/C=C/c1cnc(N2CCN(S(=O)(=O)c3ccc(C(F)(F)F)cc3)CC2)s1)NO
assignedLabel: class 3

structure: O=C(NO)c1cnc(N2CCN(CCc3ccccc3)CC2)s1
assignedLabel: class 3

structure: O=C(NO)c1cnc(N2CCN(S(=O)(=O)c3ccc(OC(F)(F)F)cc3)CC2)s1
assignedLabel: class 2

structure: O=C(/C=C/c1cnc(N2CCN(S(=O)(=O)c3ccc(-c4ccccc4)cc3)CC2)s1)NO
assignedLabel: class 3

structure: O=C(/C=C/c1cnc(N2CCN(S(=O)(=O)c3ccc(OC(F)(F)F)cc3)CC2)s1)NO
assignedLabel: class 3

structure: O=C(/C=C/c1cnc(N2CCN(S(=O)(=O)c3ccc4ccccc4c3)CC2)s1)NO
assignedLabel: class 1

structure: O=C(NO)c1cnc(N2CCN(S(=O)(=O)c3ccc([N+](=O)[O-])cc3)CC2)s1
assignedLabel: class 2

structure: O=C(NO)c1cnc(N2CCN(S(=O)(=O)c3ccc4ccccc4c3)CC2)s1
assignedLabel: class 2

Which bin should I file O=C(NO)c1cnc(N2CCN(S(=O)(=O)c3ccc(F)cc3)CC2)s1 under?
class 1

What would you report for COc1ccc(S(=O)(=O)N2CCN(c3ncc(/C=C/C(=O)NO)s3)CC2)cc1OC ?
class 1

What would you report for Cc1ccc(S(=O)(=O)N2CCN(c3ncc(C(=O)NO)s3)CC2)cc1 ?
class 1

What would you report for O=C(/C=C/c1cnc(N2CCN(S(=O)(=O)c3ccccc3)CC2)s1)NO ?
class 2

What would you report for O=C(NO)c1cnc(N2CCN(C(=O)c3ccccc3)CC2)s1 ?
class 3

What would you report for CN1CCN(c2ncc(C(=O)NO)s2)CC1 ?
class 3

What would you report for O=C(/C=C/c1cnc(N2CCN(S(=O)(=O)c3ccc(F)cc3)CC2)s1)NO ?
class 3

What would you report for CC(=O)N1CCN(c2ncc(C(=O)NO)s2)CC1 ?
class 2

What would you report for O=C(NO)c1cnc(N2CCN(Cc3ccccc3)CC2)s1 ?
class 3

What would you report for O=C(NO)c1cnc(N2CCN(C(=O)Cc3ccccc3)CC2)s1 ?
class 3

The reported measurements were obtained from ChEMBL document CHEMBL1140461.
